Items are presented alongside their recorded IC50.
- experimental.target: ZAP-70 (Homo sapiens)
- Sequence (P43403 whole entry): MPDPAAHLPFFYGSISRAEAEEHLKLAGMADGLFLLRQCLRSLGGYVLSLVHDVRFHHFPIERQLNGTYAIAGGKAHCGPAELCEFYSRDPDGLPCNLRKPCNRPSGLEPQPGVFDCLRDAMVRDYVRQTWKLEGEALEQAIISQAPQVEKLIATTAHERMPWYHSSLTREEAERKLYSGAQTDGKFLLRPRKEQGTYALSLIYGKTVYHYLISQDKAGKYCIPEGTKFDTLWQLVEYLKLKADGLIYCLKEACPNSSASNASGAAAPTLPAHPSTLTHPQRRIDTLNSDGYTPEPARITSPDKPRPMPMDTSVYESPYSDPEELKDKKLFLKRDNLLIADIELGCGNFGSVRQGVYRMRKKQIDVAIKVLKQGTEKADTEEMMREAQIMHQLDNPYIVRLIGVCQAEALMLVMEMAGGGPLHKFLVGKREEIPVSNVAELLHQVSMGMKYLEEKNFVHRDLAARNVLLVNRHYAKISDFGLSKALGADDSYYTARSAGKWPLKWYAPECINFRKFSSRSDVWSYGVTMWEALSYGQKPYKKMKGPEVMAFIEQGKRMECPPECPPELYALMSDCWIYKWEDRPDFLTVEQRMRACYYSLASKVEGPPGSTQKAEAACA
- assay.protocol: DELFIA assay (ZAP-70 kinase, phosphorylation of biotinylated poly(glu,tyr))
- Format: biochemical
- condition: ZAP-70 DELFIA, class symbols; read-out: Activity (IC50 in vitro)
- Procedure: Before initiation of kinase reactions, compounds were pre-incubated with ZAP-70. […] The amount of phosphate transferred to biotinylated poly(glu,tyr) was measured using the Dissociation Enhanced Lanthanide Fluorescence Immuno-assay (DELFIA) from Perkin Elmer according to manufacturers protocol. […] Free antibody was removed with six washes, Europium was dissociated from the antibody, and Europium fluorescence was measured at using an excitation wavelength of 340 nm and an emission wavelength of 615 nm.

Examples with their reported IC50 follow.
molecule: N#Cc1ccc(-c2ccc3nc(N4CCC(c5cccc(F)c5)C4)cc(C(=O)N4CCC[C@H]4CN4CCCC4)c3c2)cc1 (some centres unmarked)
IC50: > 10 µM
--
molecule: CN(C)c1ccc(Nc2cc(CCc3ccc(F)cc3)nc3ccc(-c4ccc5c(c4)OCO5)cc23)cc1
IC50: > 10 µM
--
molecule: O=C(c1cc(NCc2ccc(C(F)(F)F)cc2)nc2ccc(-c3ccc4cc[nH]c4c3)cc12)N1CCC[C@H]1CN1CCCC1
IC50: < 1 µM
--
molecule: N#Cc1ccc(-c2ccc3nc(NCc4ccc(F)c(Cl)c4)cc(C(=O)N4CCC[C@H]4CN4CCCC4)c3c2)cc1
IC50: > 10 µM
--
molecule: O=C(c1cc(NC2CCCCC2)nc2ccc(-c3ccc4c(c3)OCO4)cc12)N1CCC[C@H]1CN1CCCC1
IC50: < 1 µM

query: So what's the measured IC50 for this one? COC[C@H](Cc1ccccc1)Nc1cc(C(=O)N2CCC[C@H]2CN2CCCC2)c2cc(-c3ccc(C#N)cc3)ccc2n1
result: > 10 µM

query: Quick one: IC50 of N#Cc1ccc(-c2ccc3nc(NCCc4ccc(Cl)cc4Cl)cc(C(=O)N4CCC[C@H]4CN4CCCC4)c3c2)cc1 ?
result: > 10 µM

query: Which value of IC50 has been reported for O=C(c1cc(NCc2ccc(C(F)(F)F)cc2)nc2ccc(-c3cc4ccccc4s3)cc12)N1CCC[C@H]1CN1CCCC1 in the records?
result: 1 to 10 µM

query: Request the reported IC50 associated with N#Cc1ccc(-c2ccc3nc(NCc4cccc(Cl)c4)cc(C(=O)N4CCC[C@H]4CN4CCCC4)c3c2)cc1
result: > 10 µM

query: # query: IC50 of entry CN(CCc1cccs1)c1cc(C(=O)N2CCC[C@H]2CN2CCCC2)c2cc(-c3ccc(C#N)cc3)ccc2n1
result: > 10 µM

query: // IC50 lookup, key: N#Cc1cccc(-c2ccc3nc(NCc4ccc(C(F)(F)F)cc4)cc(C(=O)N4CCC[C@H]4CN4CCCC4)c3c2)c1
result: < 1 µM

query: Can you share its IC50? I mean this molecule: COC[C@@H]1CCCN1c1cc(C(=O)N2CCC[C@H]2CN2CCCC2)c2cc(-c3ccc4c(c3)OCO4)ccc2n1
result: > 10 µM

query: Give the measured IC50 of CCCCCCc1cc(C(=O)N2CCC[C@H]2CN2CCCC2)cc(N(C)Cc2ccccc2)n1 .
result: > 10 µM

query: Please give the measured IC50 for this molecule: O=C(c1cc(N2CCOCC2)nc2ccc(-c3ccc4c(c3)OCO4)cc12)N1CCC[C@H]1CN1CCOCC1
result: 1 to 10 µM

Where do the numbers come from? From patent US20080119515A1.
